# target-system: T1, recombinant human ADAMTS5 (R&D Systems cat #2198-AD) (human, UniProt Q9UNA0 262-622, limits assumed)
# T1 construct: bought protein
# T1 sequence: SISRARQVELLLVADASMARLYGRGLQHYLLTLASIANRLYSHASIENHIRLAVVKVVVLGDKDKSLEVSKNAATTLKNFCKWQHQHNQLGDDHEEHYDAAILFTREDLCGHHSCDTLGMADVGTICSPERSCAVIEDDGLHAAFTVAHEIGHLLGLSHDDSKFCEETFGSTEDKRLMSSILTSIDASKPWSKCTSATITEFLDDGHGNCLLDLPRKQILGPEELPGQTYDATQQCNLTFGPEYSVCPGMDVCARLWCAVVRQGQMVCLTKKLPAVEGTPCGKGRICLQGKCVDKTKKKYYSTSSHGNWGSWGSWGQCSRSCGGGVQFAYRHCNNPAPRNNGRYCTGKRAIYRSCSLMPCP
# assay-protocol: SPR kinetics, Biacore T100, ADAMTS5 immobilised
# Protocol: For referencing, affinity for human ADAMTS5 was also determined. Thereto, rat and human ADAMTS5 were immobilized onto a CM5 chip via amine coupling, using EDC and NHS chemistry. Purified Nanobodies were injected for 2 minutes at different concentrations (between 1 and 1000 nM) and allowed to dissociate for 25 min at a flow rate of 45 μl/min. The kinetic constants were calculated from the sensorgrams using the BIAEvaluation software (1:1 interaction).
measurement-label: pKd
Numbers only, as −log10 of the molar value.

Worked cases, answers included:
binder	pKd
Nanobody 2F03 (VHH, tagged as tested (anti-Flag detection, IMAC); also called 02F03; 2F3) VHH: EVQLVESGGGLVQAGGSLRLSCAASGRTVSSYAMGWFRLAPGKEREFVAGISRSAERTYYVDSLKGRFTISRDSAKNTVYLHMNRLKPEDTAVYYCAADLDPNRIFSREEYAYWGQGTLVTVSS	8.80
Nanobody 2A12 (VHH, tagged as tested (anti-Flag detection, IMAC); also called 02A12) VHH: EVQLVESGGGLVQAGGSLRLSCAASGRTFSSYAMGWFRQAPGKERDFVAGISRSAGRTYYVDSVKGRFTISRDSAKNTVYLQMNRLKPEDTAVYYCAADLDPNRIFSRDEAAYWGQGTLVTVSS	8.72
Nanobody 093 (3F04 (N100fQ)) (VHH, N-glycosylation motif knocked out; also called construct 093) VHH: EVQLVESGGGSVQAGGSLRLSCVASGRYPMAWFRQAPGKEREFVAGVSWGGDRTYYADSVQGRFTVSRDYAKNTLYLQMNSLKPEDAAVYYCAGDPWGRLFRVKDQYSDWGQGTLVTVSS	8.31

Now, please, on to the next binder.
QUERY: Dear colleague, I am looking for the recorded pKd of the following binder: Nanobody 049 (11B06 (N52S)) (VHH, N-glycosylation motif knocked out; also called construct 049) VHH: EVQLVESGGGLVQAGGSLRLSCAASGLTFRRNAMGWFRQAPGKERELLAGISWSGGTTYYVDSVKGRFTISRDNAKNTVDLQMISPKPEDTAVYYCAADGDIGTLVNDENPRYWGQGTLVTVSS
RESULT: 8.46
